- TESTED TARGET: human GR (Homo sapiens, UniProt P04150)
- Sequence (P04150 1-777): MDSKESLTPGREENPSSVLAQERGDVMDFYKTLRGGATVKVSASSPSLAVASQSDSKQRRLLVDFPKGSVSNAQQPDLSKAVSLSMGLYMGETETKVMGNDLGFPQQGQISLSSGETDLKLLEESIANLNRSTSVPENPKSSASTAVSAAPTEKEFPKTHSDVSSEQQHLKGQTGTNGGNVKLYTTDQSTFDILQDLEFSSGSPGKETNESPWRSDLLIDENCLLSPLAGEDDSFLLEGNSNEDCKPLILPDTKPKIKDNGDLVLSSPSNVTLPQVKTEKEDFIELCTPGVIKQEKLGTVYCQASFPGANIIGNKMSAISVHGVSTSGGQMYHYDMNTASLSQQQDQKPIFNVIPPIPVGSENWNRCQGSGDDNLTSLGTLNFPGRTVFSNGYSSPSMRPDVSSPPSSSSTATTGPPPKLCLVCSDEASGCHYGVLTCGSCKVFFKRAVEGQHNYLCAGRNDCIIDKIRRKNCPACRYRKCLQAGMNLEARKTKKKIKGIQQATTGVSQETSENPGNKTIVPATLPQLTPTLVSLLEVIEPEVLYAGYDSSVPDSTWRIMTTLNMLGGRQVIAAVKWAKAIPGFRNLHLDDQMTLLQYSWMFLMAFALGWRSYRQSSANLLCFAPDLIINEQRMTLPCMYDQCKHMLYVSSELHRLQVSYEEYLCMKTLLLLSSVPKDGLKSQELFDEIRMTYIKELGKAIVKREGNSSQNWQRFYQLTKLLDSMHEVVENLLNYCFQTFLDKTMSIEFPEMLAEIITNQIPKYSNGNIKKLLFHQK
- ASSAY PROTOCOL: Transrepression Assay (GITAR), TNFα-β-lactamase reporter gene in U937 cells
- Type: cell-based
- Parameters: U937 cells contain an endogenous glucocorticoid receptor (GR); endogenous in cells; host or cells: U937 cells stably transfected with the TNF-α promoter/β-lactamase reporter only
- EXPERIMENTAL CONTEXT: Table 1; separation of GITAR Emax over GRAMMER Emax
I'd be grateful if you could share measured GITAR > GRAMM % SEP for these entries.
Reply with just the number (in %).

Tested system human GR (Homo sapiens, UniProt P04150); GITAR > GRAMM % SEP recorded for CC(C(N)=O)c1ccccc1CC[C@]1(O)CCC2=Cc3c(cnn3-c3ccc(F)cc3)C[C@@]21C (single isomer, unassigned) [Example 196] was 20

Tested system human GR (Homo sapiens, UniProt P04150); GITAR > GRAMM % SEP recorded for C[C@]12Cc3cnn(-c4ccc(F)cc4)c3C=C1CC[C@@]2(O)CCc1cccc(F)c1CC(N)=O [Example 194] was 41

Tested system human GR (Homo sapiens, UniProt P04150); GITAR > GRAMM % SEP recorded for C[C@]12Cc3cnn(-c4ccc(F)cc4)c3C=C1CC[C@@]2(O)CCc1cccc(F)c1[C@@H](N)C(F)(F)F [Example 152] was 34

Tested system human GR (Homo sapiens, UniProt P04150); GITAR > GRAMM % SEP recorded for COC(=O)C(C)(C)NC(=O)c1ccccc1CC[C@]1(O)CCC2=Cc3c(cnn3-c3ccc(F)cc3)C[C@@]21C [Example 52] was 29

Tested system human GR (Homo sapiens, UniProt P04150); GITAR > GRAMM % SEP recorded for CC(O)(C(N)=O)c1ccccc1CC[C@]1(O)CCC2=Cc3c(cnn3-c3ccc(F)cc3)C[C@@]21C (single isomer, unassigned) [Example 150] was 29

Tested system human GR (Homo sapiens, UniProt P04150); GITAR > GRAMM % SEP recorded for C[C@]12Cc3cnn(-c4ccc(F)c(F)c4)c3C=C1CC[C@@]2(O)CCc1ccccc1C(N)=O [Example 172] was 36

Tested system human GR (Homo sapiens, UniProt P04150); GITAR > GRAMM % SEP recorded for C[C@]12Cc3cnn(-c4ccc(F)cc4)c3C=C1CC[C@@]2(O)CCc1ccccc1CC(N)=O [Example 107] was 29

Tested system human GR (Homo sapiens, UniProt P04150); GITAR > GRAMM % SEP recorded for C[C@]12Cc3cnn(-c4ccc(F)cc4)c3C=C1CC[C@@]2(O)CCc1ccccc1C(=O)N1CC(=O)C1 [Example 156] was 22

Tested system human GR (Homo sapiens, UniProt P04150); GITAR > GRAMM % SEP recorded for C[C@]12Cc3cnn(-c4ccc(F)cc4)c3C=C1CC[C@@]2(O)CCc1ccccc1C1(NS(=O)(=O)C2CC2)CC1 [Example 91] was 26

Tested system human GR (Homo sapiens, UniProt P04150); GITAR > GRAMM % SEP recorded for C=CCNC(=O)c1c(F)cccc1CC[C@]1(O)CCC2=Cc3c(cnn3-c3ccc(F)cc3)C[C@@]21C [Example 57] was 40

Tested system human GR (Homo sapiens, UniProt P04150); GITAR > GRAMM % SEP recorded for C[C@]12Cc3cnn(-c4ccc(F)cc4)c3C=C1CC[C@@]2(O)/C=C/c1ccccc1S(N)(=O)=O [Example 160] was 42

Tested system human GR (Homo sapiens, UniProt P04150); GITAR > GRAMM % SEP recorded for CC(C)[C@@H](C)NC(=O)c1c(F)cccc1CC[C@]1(O)CCC2=Cc3c(cnn3-c3ccc(F)cc3)C[C@@]21C [Example 48] was 59

Tested system human GR (Homo sapiens, UniProt P04150); GITAR > GRAMM % SEP recorded for C[C@]12Cc3cnn(-c4ccc(F)cc4)c3C=C1CC[C@@]2(O)CCc1ccc(F)cc1C#N [Example 163] was 23

Tested system human GR (Homo sapiens, UniProt P04150); GITAR > GRAMM % SEP recorded for CC(C)(C)CNC(=O)c1c(F)cccc1CC[C@]1(O)CCC2=Cc3c(cnn3-c3ccc(F)cc3)C[C@@]21C [Example 55] was 53
